- measured-target: ΔF508-CFTR (Homo sapiens, UniProt P13569, DEL508-508)
- Construct: host or cells: CFBE41o-, doxycycline-inducible
- Sequence (P13569 with tags, fused parts or gaps DEL508-508): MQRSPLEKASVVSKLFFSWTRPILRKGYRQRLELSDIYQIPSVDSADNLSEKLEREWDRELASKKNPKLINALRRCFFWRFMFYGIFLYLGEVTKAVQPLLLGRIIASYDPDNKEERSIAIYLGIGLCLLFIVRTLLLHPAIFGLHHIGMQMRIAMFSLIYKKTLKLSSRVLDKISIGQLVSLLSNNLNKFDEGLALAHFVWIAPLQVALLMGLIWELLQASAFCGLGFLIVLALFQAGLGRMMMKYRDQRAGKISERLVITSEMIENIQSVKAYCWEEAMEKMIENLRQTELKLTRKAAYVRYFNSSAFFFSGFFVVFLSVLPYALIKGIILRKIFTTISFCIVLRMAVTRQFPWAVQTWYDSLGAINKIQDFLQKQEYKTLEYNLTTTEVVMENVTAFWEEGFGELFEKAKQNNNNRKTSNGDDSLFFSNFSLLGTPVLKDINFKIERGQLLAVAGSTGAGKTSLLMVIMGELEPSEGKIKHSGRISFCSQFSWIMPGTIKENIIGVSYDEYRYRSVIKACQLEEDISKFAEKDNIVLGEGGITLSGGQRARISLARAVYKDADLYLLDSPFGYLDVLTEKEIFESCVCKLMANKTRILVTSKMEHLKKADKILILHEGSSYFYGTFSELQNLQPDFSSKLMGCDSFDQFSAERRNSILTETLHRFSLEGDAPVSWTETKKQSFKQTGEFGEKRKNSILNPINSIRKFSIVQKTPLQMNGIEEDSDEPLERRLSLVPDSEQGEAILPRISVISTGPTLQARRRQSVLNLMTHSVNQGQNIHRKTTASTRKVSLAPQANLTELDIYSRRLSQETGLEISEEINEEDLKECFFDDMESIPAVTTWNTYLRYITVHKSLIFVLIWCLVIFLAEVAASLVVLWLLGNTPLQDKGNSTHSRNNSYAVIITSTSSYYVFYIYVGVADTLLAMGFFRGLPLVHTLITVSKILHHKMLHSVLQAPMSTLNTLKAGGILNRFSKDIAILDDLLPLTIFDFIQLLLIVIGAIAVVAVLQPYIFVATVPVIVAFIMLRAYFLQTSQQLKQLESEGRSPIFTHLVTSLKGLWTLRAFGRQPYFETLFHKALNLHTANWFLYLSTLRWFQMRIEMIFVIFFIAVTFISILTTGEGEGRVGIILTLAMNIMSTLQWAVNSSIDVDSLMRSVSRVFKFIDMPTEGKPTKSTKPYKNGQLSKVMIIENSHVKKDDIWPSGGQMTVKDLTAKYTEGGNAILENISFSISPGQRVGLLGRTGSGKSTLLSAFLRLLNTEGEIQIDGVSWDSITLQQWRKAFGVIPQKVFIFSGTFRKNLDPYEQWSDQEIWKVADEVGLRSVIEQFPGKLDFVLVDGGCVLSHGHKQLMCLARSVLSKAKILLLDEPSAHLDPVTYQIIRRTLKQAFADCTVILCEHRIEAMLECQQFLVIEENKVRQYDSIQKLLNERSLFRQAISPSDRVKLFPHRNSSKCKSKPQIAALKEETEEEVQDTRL
- assay-name: CFTR cell surface levels using HRP-tagged ΔF508-CFTR expressing CFBE cells, in the presence of a co-corrector
- Assay type: cell-based
- measurement-conditions: HRP-tagged ΔF508-CFTR expressing CFBE cells, in the presence of 3 μM co-corrector
Examples of molecules with documented % Activation follow.
Give the quantity in %, number only.

For ΔF508-CFTR (Homo sapiens, UniProt P13569, DEL508-508), provide % Activation of CC(C)c1nn(C2CCCCC2)c2nc(C(=O)O)cc(-c3ccc(N(C)C4CCOCC4)nc3)c12 [compound 169] please.
436.5

For ΔF508-CFTR (Homo sapiens, UniProt P13569, DEL508-508), provide % Activation of CN1CCC([C@@H](F)COc2cc(C(=O)O)nc3c2c(C2CCC2)nn3-c2ccccc2)CC1 [compound 482] please.
284.7

###

- measured-target: ΔF508-CFTR (Homo sapiens, UniProt P13569, DEL508-508)
- Construct: host or cells: CFBE41o-, doxycycline-inducible
- assay-name: CFTR cell surface levels using HRP-tagged ΔF508-CFTR expressing CFBE cells, intrinsic corrector capacity
- Assay type: cell-based
- measurement-conditions: HRP-tagged ΔF508-CFTR CFBE41o- cells, compounds alone (intrinsic corrector capacity), 20 hours at 33° C.; positive control 3 μM corrector
- From the text: Measuring CFTR Cell Surface Levels Using HRP-Tagged AF508-CFTR Expressing CFBE Cells The HRP-tagged AF508-CFTR cell assay measures the expression of CFTR-ΔF508 at the plasma membrane. […] When HRP-tagged AF508-CFTR is present at the plasma membrane, the HRP enzyme activity can be measured. The amount of CFTR-ΔF508 that can be rescued to the plasma membrane is correlated with the amount of functional enzyme that can be measured. […]
metric: % Activation (%)
Give the quantity in %, number only.

Cc1nn(-c2cc[nH]c(=O)c2)c2nc(C(=O)O)cc(-c3ccc(N4CCOCC4)cc3)c12	4.754

Recorded % Activation of Cc1cccc(-n2nc(C(C)C)c3c(N4CCC5(CCOCC5)C4)cc(C(=O)O)nc32)c1 , please.
164.4

Recorded % Activation of Cc1cccc(-n2nc(C(C)C)c3c(N4CC5CN(C(=O)OC(C)(C)C)CC5C4)cc(C(=O)O)nc32)c1 (stereo not shown) , please.
161

Recorded % Activation of Cc1c(C(=O)O)nc2c(c(C)nn2-c2ccccc2)c1-c1ccc(N2CCOCC2)cc1 , please.
74.83

Recorded % Activation of CC(C)c1nn(-c2cc(F)cc(F)c2)c2nc(C(=O)O)cc(-c3ccc(N(C)C4CCOCC4)cc3)c12 , please.
267.15

Recorded % Activation of Cc1nn(-c2ccccc2)c2nc(C(=O)O)cc(-c3ccc(N4CCCCC4)cc3)c12 , please.
91.055

Recorded % Activation of CC(C)c1nn(-c2cc(N3CCOCC3)ccn2)c2nc(C(=O)O)cc(-c3ccc(N4CCOCC4)cc3)c12 , please.
60.46

###

- measured-target: ΔF508-CFTR (Homo sapiens, UniProt P13569, DEL508-508)
- Construct: host or cells: CFBE41o-, doxycycline-inducible
- assay-name: CFTR cell surface levels using HRP-tagged ΔF508-CFTR expressing CFBE cells, intrinsic corrector capacity
- Type: cell-based
- measurement-conditions: HRP-tagged ΔF508-CFTR expressing CFBE cells; intrinsic corrector capacity (no co-corrector); 33° C., 20 hours
metric: % Activation (%)
Give the quantity in %, number only.

CN(C[C@@H]1CCN(c2cc(C(=O)O)nc3c2c(C2CCC2)nn3-c2ccccc2)C1)C(=O)OC(C)(C)C	158.5
O=C(O)c1cc(OCC2CCOCC2)c2c(C3CCC3)nn(-c3ccccc3)c2n1	134.8
COCCOCC1(F)CCCN(c2cc(C(=O)O)nc3c2c(C2CCC2)nn3-c2ccccc2)C1 (stereo not shown)	156.2
CC(c1ccc(-c2cc(C(=O)O)nc3c2c(C2CCC2)nn3C2CCCCC2)cc1)N1CCOCC1 (stereo not shown)	99.71
O=C(O)c1cc(N2CCCOCC2)c2c(C3CCC3)nn(-c3ccccc3)c2n1	109.4

For ΔF508-CFTR (Homo sapiens, UniProt P13569, DEL508-508), provide % Activation of O=C(O)c1cc(OCCN2CCCCC2)c2c(C3CCC3)nn(-c3ccccc3)c2n1 please.
96.54

For ΔF508-CFTR (Homo sapiens, UniProt P13569, DEL508-508), provide % Activation of O=C(O)c1cc(N2CCC(CN3CC(F)C3)CC2)c2c(C3CCC3)nn(-c3ccccc3)c2n1 please.
265.4
